# ASSAYED_SYSTEM: T1, recombinant human IP-10 (R&D Systems) (human, UniProt P02778 22-98)
# T1 sequence: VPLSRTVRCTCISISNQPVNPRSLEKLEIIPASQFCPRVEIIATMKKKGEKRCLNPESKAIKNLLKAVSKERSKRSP
# PROCEDURE_DETAILS: cell-based or functional assay
Each entry below lists one item and its recorded IC50 of inhibition of chemotaxis, donor 318 value.
Enter your answer as a number in µg/mL; do not include the unit.

Study these solved cases before continuing.
BINDER	ENDPOINT_UNIT	OBSERVED_VALUE
humanized monoclonal antibody HuAIP13 (antibody, IgG1, V domains shown) VH: EVQLVQSGAEVKKPGATVKISCKVSGYTFTDYSMHWVRQAPGKGLKWMGWINTEIGEPTYADDFKGRFTFTLDTSTSTAYMELSSLRSEDTAVYYCARNYDYDAYFDVWGQGTTVTVSS VL: DIQMTQSPSSLSASVGDRVTITCKADQDINKYIAWYQQKPGKAPKLLLHHTSTLQPGIPSRFSGSGSGRDYTFTISSLQPEDIATYYCLQYDSLLFTFGQGTKLEIK	µg/mL	0.045
murine monoclonal antibody AIP12 (antibody, V domains shown, Mouse hybridoma antibody; Mouse IgG1/kappa is used as its isotype control; also called MuAIP12; MUAIP12) VH: QIQLVQSGPELKKPGETVKISCKASGYTFTDYSMHWVKQAPGKGLKWMGWINTETGEPTYADDFKGRFAFSLETSASTAYLQINNLKNEDTATYFCARNYDYDGYFDVWGAGTTVTVSS VL: DIQMTQSPSSLSASLGGKVTITCKASQDINKYIAWYQHKPGKGPRLLIHYTSTLQPGIPSRFSGSGSGRDYSFSISNLEPEDIATYYCLQYDNLLFTFGSGTKLEIK	µg/mL	0.041
humanized monoclonal antibody HuAIP12 (antibody, IgG1, V domains shown) VH: EVQLVQSGAEVKKPGATVKISCKVSGYTFTDYSMHWVRQAPGKGLKWMGWINTETGEPTYADDFKGRFTFTLDTSTSTAYMELSSLRSEDTAVYYCARNYDYDGYFDVWGQGTTVTVSS VL: DIQMTQSPSSLSASVGDRVTITCKASQDINKYIAWYQQKPGKAPKLLIHYTSTLQPGIPSRFSGSGSGRDYTFTISSLQPEDIATYYCLQYDNLLFTFGQGTKLEIK	µg/mL	0.038

For the next question, use this binder.
For murine monoclonal antibody AIP13 (antibody, V domains shown, Mouse hybridoma antibody; Mouse IgG1/kappa is used as its isotype control; also called MuAIP13) VH: QIQLVQSGPELKKPGETVKISCKASGYTFTDYSMHWVKQAPGKGLKWMGWINTEIGEPTYADDFKGRFAFSLETSASTAYLQINNLKNEDTATYFCARNYDYDAYFDVWGAGTTVTVSS VL: DIQMTQSPSSLSASLGGKVTITCKADQDINKYIAWYQHKPGRGPRLLLHHTSTLQPGIPSRFSGSGSGRDYSFSISNLEPADIATYYCLQYDSLLFTFGSGTKLEIK the binder record lists IC50 of inhibition of chemotaxis, donor 318 as 0.139
